I'd be grateful if you could share measured Total related material for these entries.
Procedure summary: Hygroscopicity evaluation
Format: physicochemical
Experimental conditions: relative humidity 75%, 2 W

# input Which Total related material reading was recorded for the molecule C[C@@H]1CN(C(=O)CC#N)CC=C1c1cc(NC(=O)C2CC2)nc2[nH]ccc12 [Example 3] ?
# output 0.44%

# input Would you mind doing C[C@@H]1CN(C(=O)CC#N)CC=C1c1cc(NC(=O)C2CC2)nc2[nH]ccc12 [Example 4] as well?
# output 1.18%

# input Would you mind doing C[C@@H]1CN(C(=O)CC#N)CC=C1c1cc(NC(=O)C2CC2)nc2[nH]ccc12 [Example 1] as well?
# output 0.69%

# input Would you mind doing C[C@@H]1CN(C(=O)CC#N)CC=C1c1cc(NC(=O)C2CC2)nc2[nH]ccc12 [Example 2] as well?
# output 0.58%

----------
Procedure summary: Physical stability evaluation under stress conditions
Type: physicochemical
Experimental conditions: S2W: 2 weeks at 60° C./80% RH
Reported metric: C.I quantitative (%)
Your answer should be a plain number; it is taken to be in %.

# input Which C.I quantitative reading was recorded for the molecule C[C@@H]1CN(C(=O)CC#N)CC=C1c1cc(NC(=O)C2CC2)nc2[nH]ccc12 [Example 2] ?
# output 17.8

# input Would you mind doing C[C@@H]1CN(C(=O)CC#N)CC=C1c1cc(NC(=O)C2CC2)nc2[nH]ccc12 [Example 1] as well?
# output 9.1

# input Would you mind doing C[C@@H]1CN(C(=O)CC#N)CC=C1c1cc(NC(=O)C2CC2)nc2[nH]ccc12 [Example 4] as well?
# output 40.3

# input Would you mind doing C[C@@H]1CN(C(=O)CC#N)CC=C1c1cc(NC(=O)C2CC2)nc2[nH]ccc12 [Example 3] as well?
# output 24.1

----------
Procedure summary: Hygroscopicity evaluation
Assay type: physicochemical
Experimental conditions: relative humidity 75%, 2 W; in %
I'd be grateful if you could share measured Individual related material for these entries.
// no unit, no text: just the number

# input Which Individual related material reading was recorded for the molecule C[C@@H]1CN(C(=O)CC#N)CC=C1c1cc(NC(=O)C2CC2)nc2[nH]ccc12 [Example 3] ?
# output 0.08

# input Would you mind doing C[C@@H]1CN(C(=O)CC#N)CC=C1c1cc(NC(=O)C2CC2)nc2[nH]ccc12 [Example 4] as well?
# output 0.15

# input Would you mind doing C[C@@H]1CN(C(=O)CC#N)CC=C1c1cc(NC(=O)C2CC2)nc2[nH]ccc12 [Example 1] as well?
# output 0.12

# input Would you mind doing C[C@@H]1CN(C(=O)CC#N)CC=C1c1cc(NC(=O)C2CC2)nc2[nH]ccc12 [Example 2] as well?
# output 0.11

----------
Procedure summary: Hygroscopicity evaluation
Type: physicochemical
Experimental conditions: relative humidity 33%, 2 W
I'd be grateful if you could share measured Total related material for these entries.
Could you give the number and then its unit, please?

# input Which Total related material reading was recorded for the compound C[C@@H]1CN(C(=O)CC#N)CC=C1c1cc(NC(=O)C2CC2)nc2[nH]ccc12 [Example 2] ?
# output 0.53%

# input Would you mind doing C[C@@H]1CN(C(=O)CC#N)CC=C1c1cc(NC(=O)C2CC2)nc2[nH]ccc12 [Example 4] as well?
# output 1.1%

# input Would you mind doing C[C@@H]1CN(C(=O)CC#N)CC=C1c1cc(NC(=O)C2CC2)nc2[nH]ccc12 [Example 1] as well?
# output 0.68%

# input Would you mind doing C[C@@H]1CN(C(=O)CC#N)CC=C1c1cc(NC(=O)C2CC2)nc2[nH]ccc12 [Example 3] as well?
# output 0.43%

----------
Procedure summary: Photostability evaluation
Assay type: physicochemical
Experimental conditions: Initial
Reported metric: Total related material (%)
Your answer should be a plain number; it is taken to be in %.

# input Which Total related material reading was recorded for the compound C[C@@H]1CN(C(=O)CC#N)CC=C1c1cc(NC(=O)C2CC2)nc2[nH]ccc12 [Example 3] ?
# output 0.45

# input Would you mind doing C[C@@H]1CN(C(=O)CC#N)CC=C1c1cc(NC(=O)C2CC2)nc2[nH]ccc12 [Example 5] as well?
# output 0.64

# input Would you mind doing C[C@@H]1CN(C(=O)CC#N)CC=C1c1cc(NC(=O)C2CC2)nc2[nH]ccc12 [Example 2] as well?
# output 0.56

# input Would you mind doing C[C@@H]1CN(C(=O)CC#N)CC=C1c1cc(NC(=O)C2CC2)nc2[nH]ccc12 [Example 1] as well?
# output 0.66

# input Would you mind doing C[C@@H]1CN(C(=O)CC#N)CC=C1c1cc(NC(=O)C2CC2)nc2[nH]ccc12 [Example 4] as well?
# output 1.13

----------
I'd be grateful if you could share measured Water for these entries.
Procedure summary: Hygroscopicity evaluation
Assay type: physicochemical
Experimental conditions: relative humidity 93%, 4 W
Excerpt: Samples were placed in a glass desiccator in which relative humidity was adjusted to 33%, 53%, 75%, and 93%, and then stored for two and four weeks to be evaluated.
Your answer should be a plain number; it is taken to be in %.

# input Which Water reading was recorded for the compound C[C@@H]1CN(C(=O)CC#N)CC=C1c1cc(NC(=O)C2CC2)nc2[nH]ccc12 [Example 1] ?
# output 5.43

# input Would you mind doing C[C@@H]1CN(C(=O)CC#N)CC=C1c1cc(NC(=O)C2CC2)nc2[nH]ccc12 [Example 2] as well?
# output 3.94

# input Would you mind doing C[C@@H]1CN(C(=O)CC#N)CC=C1c1cc(NC(=O)C2CC2)nc2[nH]ccc12 [Example 3] as well?
# output 0.97

# input Would you mind doing C[C@@H]1CN(C(=O)CC#N)CC=C1c1cc(NC(=O)C2CC2)nc2[nH]ccc12 [Example 4] as well?
# output 1.72

----------
Procedure summary: Photostability evaluation
Assay type: physicochemical
Experimental conditions: Initial
I'd be grateful if you could share measured Individual related material for these entries.
Your answer should be a plain number; it is taken to be in %.

# input Which Individual related material reading was recorded for the molecule C[C@@H]1CN(C(=O)CC#N)CC=C1c1cc(NC(=O)C2CC2)nc2[nH]ccc12 [Example 3] ?
# output 0.08

# input Would you mind doing C[C@@H]1CN(C(=O)CC#N)CC=C1c1cc(NC(=O)C2CC2)nc2[nH]ccc12 [Example 4] as well?
# output 0.13

# input Would you mind doing C[C@@H]1CN(C(=O)CC#N)CC=C1c1cc(NC(=O)C2CC2)nc2[nH]ccc12 [Example 1] as well?
# output 0.13

# input Would you mind doing C[C@@H]1CN(C(=O)CC#N)CC=C1c1cc(NC(=O)C2CC2)nc2[nH]ccc12 [Example 2] as well?
# output 0.12

# input Would you mind doing C[C@@H]1CN(C(=O)CC#N)CC=C1c1cc(NC(=O)C2CC2)nc2[nH]ccc12 [Example 5] as well?
# output 0.14

----------
I'd be grateful if you could share measured Total related material for these entries.
Procedure summary: Photostability evaluation
Type: physicochemical
Experimental conditions: Solid, UV + Vis Control
Your answer should be a plain number; it is taken to be in %.

# input Which Total related material reading was recorded for the molecule C[C@@H]1CN(C(=O)CC#N)CC=C1c1cc(NC(=O)C2CC2)nc2[nH]ccc12 [Example 3] ?
# output 0.48

# input Would you mind doing C[C@@H]1CN(C(=O)CC#N)CC=C1c1cc(NC(=O)C2CC2)nc2[nH]ccc12 [Example 4] as well?
# output 0.14

# input Would you mind doing C[C@@H]1CN(C(=O)CC#N)CC=C1c1cc(NC(=O)C2CC2)nc2[nH]ccc12 [Example 1] as well?
# output 0.65

# input Would you mind doing C[C@@H]1CN(C(=O)CC#N)CC=C1c1cc(NC(=O)C2CC2)nc2[nH]ccc12 [Example 5] as well?
# output 0.78

# input Would you mind doing C[C@@H]1CN(C(=O)CC#N)CC=C1c1cc(NC(=O)C2CC2)nc2[nH]ccc12 [Example 2] as well?
# output 0.48

----------
Procedure summary: Physical stability evaluation under stress conditions
Assay type: physicochemical
Experimental conditions: S4W: 4 weeks at 60° C./80% RH
I'd be grateful if you could share measured Moisture for these entries.
Your answer should be a plain number; it is taken to be in %.

# input Which Moisture reading was recorded for the compound C[C@@H]1CN(C(=O)CC#N)CC=C1c1cc(NC(=O)C2CC2)nc2[nH]ccc12 [Example 2] ?
# output 3.79

# input Would you mind doing C[C@@H]1CN(C(=O)CC#N)CC=C1c1cc(NC(=O)C2CC2)nc2[nH]ccc12 [Example 4] as well?
# output 0.98

# input Would you mind doing C[C@@H]1CN(C(=O)CC#N)CC=C1c1cc(NC(=O)C2CC2)nc2[nH]ccc12 [Example 3] as well?
# output 0.2

----------
Procedure summary: Hygroscopicity evaluation
Assay type: physicochemical
Experimental conditions: relative humidity 33%, 2 W
I'd be grateful if you could share measured Water for these entries.
Your answer should be a plain number; it is taken to be in %.

# input Which Water reading was recorded for the compound C[C@@H]1CN(C(=O)CC#N)CC=C1c1cc(NC(=O)C2CC2)nc2[nH]ccc12 [Example 1] ?
# output 5.22

# input Would you mind doing C[C@@H]1CN(C(=O)CC#N)CC=C1c1cc(NC(=O)C2CC2)nc2[nH]ccc12 [Example 2] as well?
# output 3.70

# input Would you mind doing C[C@@H]1CN(C(=O)CC#N)CC=C1c1cc(NC(=O)C2CC2)nc2[nH]ccc12 [Example 3] as well?
# output 0.41

# input Would you mind doing C[C@@H]1CN(C(=O)CC#N)CC=C1c1cc(NC(=O)C2CC2)nc2[nH]ccc12 [Example 4] as well?
# output 0.56
